tested on: HepaRG spheroids; experiment: Combined HCI (HCS) and cellular ATP 3D assay in HepaRG spheroids; settings: HepaRG; all endpoints; cut-off <100x Avg Cmaxu
assay-endpoint: HepaRG <100x Avg Cmaxu All

>>> reported_value("C1CCC(C(CC2CCCCN2)C2CCCCC2)CC1 (centres unmarked)")
"+ve (<100x Avg Cmaxu)"
>>> reported_value("CCc1ccc(CCOc2ccc(CC3SC(=O)NC3=O)cc2)nc1 (centres unmarked) [pioglitazone, reference compound]")
"-ve"
>>> reported_value("CC(=O)Oc1ccccc1C(=O)O")
"+ve (<100x Avg Cmaxu)"
>>> reported_value("Cc1ccc(N(CC2=NCCN2)c2cccc(O)c2)cc1")
"-ve"
>>> reported_value("Cn1cnc([N+](=O)[O-])c1Sc1ncnc2nc[nH]c12")
"+ve (<100x Avg Cmaxu)"

Q. Endpoint output: HepaRG <100x Avg Cmaxu All of O=C1CN(/N=C/c2ccc(-c3ccc([N+](=O)[O-])cc3)o2)C(O)=N1 . Value?
A. +ve (<100x Avg Cmaxu)

Q. Endpoint output: HepaRG <100x Avg Cmaxu All of CNC1(C)C2CCC(C2)C1(C)C (centres unmarked) . Value?
A. -ve

Q. Endpoint output: HepaRG <100x Avg Cmaxu All of Nc1cc(N2CCCCC2)nc(N)[n+]1[O-] . Value?
A. -ve

Q. Endpoint output: HepaRG <100x Avg Cmaxu All of O=c1[nH]c(=O)n([C@@H]2O[C@H](CO)[C@@H](O)[C@@H]2F)cc1I . Value?
A. +ve (<100x Avg Cmaxu)

Q. Endpoint output: HepaRG <100x Avg Cmaxu All of CN(C)C(=O)Oc1cccc([N+](C)(C)C)c1 . Value?
A. -ve

Q. Endpoint output: HepaRG <100x Avg Cmaxu All of N[C@@H](Cc1cc(I)c(Oc2ccc(O)c(I)c2)c(I)c1)C(=O)O . Value?
A. -ve

Q. Endpoint output: HepaRG <100x Avg Cmaxu All of CC(COc1ccccc1)N(CCCl)Cc1ccccc1 (centres unmarked) . Value?
A. -ve

Q. Endpoint output: HepaRG <100x Avg Cmaxu All of O=C1CN(/N=C/c2ccc([N+](=O)[O-])o2)C(=O)N1 [nitrofurantoin, reference compound] . Value?
A. +ve (<100x Avg Cmaxu)
